Entries and their GI50 values follow.
Tested on: RPMI-8226
test: NCI tumour cell line growth inhibition, 48 h
The source made the active and inactive calls. Rule as the data show it: active = GI50 up to about 1.1 µM and inactive = higher. Where a SMILES comes first, the peptide text is derived from it. The star is where a group is joined. Boc = CC(C)(C)OC(=O)*

- compound: "COc1cc2[nH]c(=O)c3cc(-c4ccccc4)cc4c(Cl)nc(c1OC)c2c43"
  GI50: "13.2 µM (inactive)"
- compound: "COc1ccc(/C=N/n2cnc3c(sc(=S)n3-c3ccccc3)c2=O)cc1"
  GI50: "16.4 µM (inactive)"
- compound: "COc1ccc(-c2cc(-c3ccccc3)nc(N)c2-c2ccc3ccccc3c2)cc1"
  GI50: "2.13 µM (inactive)"
- compound: "COC(=O)C1Cc2ccc(O)c(O)c2CN1 (stereo not given)"
  GI50: "24.2 µM (inactive)"
- compound: "Cc1ccc2c(c1)nc1n2C(N)=Nc2ccccc2S1"
  GI50: "19.6 µM (inactive)"
- compound: "O=C(O)C1=NN=C(C(=O)O)NN1"
  GI50: "43.9 µM (inactive)"
- compound: "CS/C(C#N)=C(\\C#N)SC"
  GI50: "1.88 µM (inactive)"
- compound: "CCOC(=O)/C(C(=O)Nc1ccc(F)cc1)=C(/N)N1CCOCC1"
  GI50: "> 100 µM (inactive)"
- compound: "O=C1c2ccccc2C(=O)c2c(NCC3CO3)ccc(NCC3CO3)c21 (stereo not given)"
  GI50: "2.76 µM (inactive)"
- compound: "N#Cc1c2nc3ccccc3nc2n2ccc3ccccc3c12"
  GI50: "> 100 µM (inactive)"
- compound: "Cc1n[nH]c(=O)n1/N=C/c1c[nH]c2ccccc12"
  GI50: "> 100 µM (inactive)"
- compound: "CCOC(=O)N1CCC2(CC1)C[C@](Sc1ccccc1)(C(C)=O)[C@H](C)O2"
  GI50: "> 100 µM (inactive)"
- compound: "Cc1cccc(C)c1NC(=O)CCC/C(CC(=O)c1ccc(F)cc1)=N\\NC(=O)C(=O)NN"
  GI50: "> 100 µM (inactive)"
- compound: "COC(=O)C(C)NC(=O)C(CCSC)NC(=O)C(Cc1ccccc1)NC(=O)OC(C)(C)C (stereo not drawn) (Boc-Phe-Met-Ala-OMe; configuration not given here)"
  GI50: "> 100 µM (inactive)"
- compound: "OCC(O)CNc1ncnc2ccccc12 (stereo not given)"
  GI50: "> 100 µM (inactive)"
- compound: "C/C(=N\\Nc1nc2ccccc2s1)c1cccnn1"
  GI50: "1.4 µM (inactive)"
- compound: "Nc1ncc(Cc2nn3c(COc4ccc(Cl)cc4)nnc3s2)s1"
  GI50: "> 100 µM (inactive)"
- compound: "COC(=O)c1ccccc1CC1Cc2ccc3c(c2C1=O)CCCC3 (stereo not given)"
  GI50: "19.2 µM (inactive)"
- compound: "O=C1CCC(CCc2nc3ccccc3[nH]2)(c2ccccc2)C(=O)N1 (stereo not given)"
  GI50: "> 100 µM (inactive)"
- compound: "CCOC(=O)CC(=O)ON(C)C(C)=O"
  GI50: "> 100 µM (inactive)"

----------
Tested on: HL-60
test: NCI tumour cell line growth inhibition, 48 h
Activity calls are given as the source filed them. No stated cut-off is given here; in the data, active = GI50 up to about 1.1 µM and inactive = higher.
Outcomes: active, inactive

- compound: "Cc1ccc(-c2cc(-c3ccccc3)c(C#N)c(=O)n2C2OC(CO)C(O)C(O)C2O)cc1 (stereo unspecified)"
  group-label: "inactive"
- compound: "Cc1ccc2oc(=O)c3c(O)c4cccc(OC5OC(C)C6O[C@@H](c7ccccc7)OC6C5OC5OC(C)C(O)C(O)C5O)c4c4oc(=O)c1c2c34 (stereo partly specified)"
  group-label: "active"
- compound: "COc1ccc(/C(=C\\c2cc(OC)c(OC)c(OC)c2)C(=O)O)cc1"
  group-label: "inactive"
- compound: "CCC(/C(=N\\Nc1c(Cl)cc(Cl)cc1Cl)c1ccccc1)n1ccnc1C (stereo unspecified)"
  group-label: "inactive"
- compound: "CCN(CC)CCN(C)CC(C)(C)C(=O)/C=C/c1ccccc1"
  group-label: "inactive"
- compound: "C=CCNC(=S)N/N=C1\\C(=O)N(CN2CCOCC2)c2ccc([N+](=O)[O-])cc21"
  group-label: "inactive"
- compound: "CN(C)CCS/C(=N\\c1ccccc1)N1C=COC=C1"
  group-label: "inactive"
- compound: "CC1NC(=O)C2Cc3ccc(O)c(c3)Oc3ccc(cc3)C(O)C(C(=O)N2C)N(C)C(=O)C(C)NC(=O)C(Cc2ccc(O)cc2)N(C)C(=O)C(C)NC1=O (stereo unspecified)"
  group-label: "inactive"
- compound: "CN(C)c1n/c(=N/Cc2ccccc2)ss1"
  group-label: "inactive"
- compound: "CCOP(=O)(OCC)C(F)(F)CC1CCCCC1"
  group-label: "inactive"
- compound: "CC(C)(C)c1cc([N+](=O)[O-])cc([N+](=O)[O-])c1O"
  group-label: "inactive"
- compound: "CCCCCCCCCCCCN(CC(O)C(O)C(OC1OC(CO)C(O)C(O)C1O)C(O)CO)C(=O)CCCCCCCCCCC (stereo unspecified)"
  group-label: "inactive"
- compound: "O=[N+]([O-])/C(C(Cl)=C(Cl)Cl)=C1/OCCS1"
  group-label: "inactive"
- compound: "Cc1ccc(S(=O)(=O)OI(O)CC(F)(F)F)cc1"
  group-label: "inactive"
- compound: "CNC(=S)NC(=S)N(C)C"
  group-label: "inactive"
- compound: "COC(=O)c1c2cccccc-2c(Cc2c3cccccc-3c(C(=O)OC)c2O)c1O"
  group-label: "inactive"
- compound: "Cc1cccc(NC(=O)c2c(N)[n+]([O-])c3ccccc3[n+]2[O-])c1"
  group-label: "inactive"
- compound: "CN(C)CCNC(=O)c1cccc(C(=O)Nc2ccccc2)c1[N+](=O)[O-]"
  group-label: "inactive"
- compound: "Cc1cc2nc(O)c(C(C)C(=O)c3ccc(Cl)cc3)nc2cc1C (stereo unspecified)"
  group-label: "inactive"
- compound: "CC(C)(C)OC(=O)NC(Cc1ccc(O)cn1)C(=O)O (stereo unspecified)"
  group-label: "inactive"
- compound: "O=C(O)Cc1cccc2c(=O)c3ccccc3oc12"
  group-label: "inactive"

----------
System: SNB-75
test: NCI tumour cell line growth inhibition, 48 h
Active and inactive are the calls of the source. No stated cut-off is given here; in the data, active = GI50 up to about 1.1 µM and inactive = higher.
Entries and their GI50 values follow.

- molecule: "CCSCCCSCCSCC"
  GI50: "> 100 µM (inactive)"
- molecule: "Cc1cccc(Cl)c1NCC(O)CN1CCN(C)CC1 (stereo not drawn)"
  GI50: "> 100 µM (inactive)"
- molecule: "O=[N+]([O-])c1ccc(-c2ccc([C@H]3CC(c4cc(F)c(Cl)cc4Cl)=NN3)o2)cc1"
  GI50: "15.1 µM (inactive)"

----------
System: UO-31
test: NCI tumour cell line growth inhibition, 48 h
Activity calls are given as the source filed them. No stated cut-off is given here; in the data, active = GI50 up to about 1.1 µM and inactive = higher.

- molecule: "N#Cc1cccc(/C=N/N/C(N)=N/O)c1"
  GI50: "49.1 µM (inactive)"
- molecule: "COc1ccc(/C=C2\\OC(=O)C(Cl)=C2c2ccc(OC)c(Cl)c2)cc1"
  GI50: "22 µM (inactive)"
- molecule: "O=C1OC(OC/C(Br)=C(\\Br)COC2OC(=O)C(Cl)=C2Cl)C(Cl)=C1Cl (stereo not drawn)"
  GI50: "3.18 µM (inactive)"
- molecule: "CC(=O)OCc1ccc2oc(=O)c(C(=O)Oc3cccc(Cl)c3)cc2c1"
  GI50: "22.1 µM (inactive)"
- molecule: "Nc1ccn(CC(O)c2cc3ccccc3[nH]2)c(=O)n1 (stereo not drawn)"
  GI50: "> 100 µM (inactive)"
- molecule: "C/C(=N\\NC(=S)N1CCCCCCCCCCCC1)c1ccccn1"
  GI50: "0.349 µM (active)"
- molecule: "N#CCCN(CCC#N)c1ccc(C(Sc2ccccc2)C(NC(=O)c2cc([N+](=O)[O-])ccc2Cl)C(=O)Sc2ccccc2)cc1 (stereo not drawn)"
  GI50: "2.2 µM (inactive)"
- molecule: "CCOC(=O)C1(F)S(=O)(=O)OCCOS1(=O)=O"
  GI50: "> 100 µM (inactive)"

----------
Test system: SK-MEL-2
test: NCI tumour cell line growth inhibition, 48 h
Activity calls are given as the source filed them. Cut-off read from the data, not from the text of the source: active = GI50 up to about 1.1 µM and inactive = higher. Where a SMILES comes first, the peptide text is derived from it. The star is where a group is joined. Boc = CC(C)(C)OC(=O)*
Outcomes: 1.0 = active, 0.0 = inactive

- compound: "N=C(N)NS(=O)(=O)c1ccc(NCCc2c3ccccc3nc3ccccc23)cc1"
  group-label: 0.0
- compound: "CCCCC(C)(C/C=C/[C@@H]1[C@@H](C(O)CCCCCC(=O)OC)C(=O)C[C@H]1O[Si](C)(C)C(C)(C)C)O[Si](C)(C)C (stereo partly specified)"
  group-label: 0.0
- compound: "COc1ccc2sc(-n3nc4ccccc4c3Nc3nc4ccc(OC)cc4s3)nc2c1"
  group-label: 0.0
- compound: "CCN1C(=O)/C(=C/Nc2ccccc2)S/C1=N/Nc1nc(-c2ccc(O)c(O)c2)cs1"
  group-label: 0.0
- compound: "CC(C)(C)N1CSC(=S)N(Cc2ccco2)C1"
  group-label: 0.0
- compound: "CSc1cc(Cl)c(C)cc1S(=O)(=O)NC(=O)NNc1ccc(F)cc1"
  group-label: 0.0
- compound: "CCOC(=O)c1nc2cc(F)cc(F)c2[nH]c1=O"
  group-label: 0.0
- compound: "O=C1C(Br)=CC2(C=C1Br)CCNC1=C2C(=O)c2ncccc2C1=O"
  group-label: 1.0
- compound: "Nc1ccc(CCN2CCN(CCCc3ccccc3)CC2)cc1"
  group-label: 0.0
- compound: "NC1=CN(CCCO)C2=N/C(=C\\c3ccccc3)C(=O)N12"
  group-label: 0.0
- compound: "COC(=O)C(C)NC(=O)C(CCSC)NC(=O)C(Cc1ccccc1)NC(=O)OC(C)(C)C (stereo not drawn) (Boc-Phe-Met-Ala-OMe; configuration not given here)"
  group-label: 0.0
- compound: "CC1(C)C(CC(=O)O)CCCC1CC(=O)O (stereo unspecified)"
  group-label: 0.0
- compound: "CCC1=NC(N/N=C/c2ccccc2O)=N/C1=C\\c1ccccc1O"
  group-label: 0.0
- compound: "CCOC(=O)C1=C(C)NC(=O)NC1c1coc2cc(C)cc(C)c2c1=O (stereo unspecified)"
  group-label: 0.0
- compound: "O=C1C(Cl)=C(NCCc2ccc(O)cc2)C(=O)c2c(O)ccc(O)c21"
  group-label: 0.0
- compound: "Cc1cc(=O)[nH]c2cc(NC(=O)C(C)NC(=O)C(C)NC(=O)C(C)NC(=O)OC(C)(C)C)ccc12 (stereo unspecified)"
  group-label: 0.0
